Target: CDK6/Cyclin D1 (Homo sapiens)
Sequence (Q00534 whole entry): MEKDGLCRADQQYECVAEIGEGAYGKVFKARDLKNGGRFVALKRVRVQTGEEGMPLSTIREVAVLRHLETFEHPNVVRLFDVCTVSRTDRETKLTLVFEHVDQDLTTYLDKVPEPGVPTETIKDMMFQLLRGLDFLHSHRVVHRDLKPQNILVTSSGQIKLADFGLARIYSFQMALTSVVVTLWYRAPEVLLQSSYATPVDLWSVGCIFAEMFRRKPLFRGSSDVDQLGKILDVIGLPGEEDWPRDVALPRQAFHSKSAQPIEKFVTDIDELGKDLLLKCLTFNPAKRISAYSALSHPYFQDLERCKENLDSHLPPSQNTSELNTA
Sequence (P24385 whole entry partner): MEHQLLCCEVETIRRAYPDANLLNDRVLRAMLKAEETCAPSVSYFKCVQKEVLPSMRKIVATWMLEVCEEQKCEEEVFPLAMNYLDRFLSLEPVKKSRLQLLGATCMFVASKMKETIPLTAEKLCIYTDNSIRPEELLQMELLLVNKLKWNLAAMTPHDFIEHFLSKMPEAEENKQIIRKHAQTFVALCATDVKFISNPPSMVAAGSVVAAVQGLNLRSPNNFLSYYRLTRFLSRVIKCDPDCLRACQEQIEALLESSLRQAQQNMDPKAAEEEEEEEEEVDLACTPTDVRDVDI
Assay: NanoBRET live-cell target engagement, NanoLuc-CDK6/Cyclin D1 in HEK-293
Type: binding
Conditions: independent experiment 2; read-out: CDK6/D1 IC50
Listing of recorded IC50 by entry.
# output: bare number, implied unit nM

Solved entries (count: 2):
COMPOUND | IC50 (nM)
CC(C)CC(=O)Nc1[nH]nc2c1CN(C(=O)C1CCN(C)CC1)C2(C)C [PHA-793887] | 480
COCCN1CCN(Cc2ccc(-c3n[nH]c4c3C(=O)c3c(NC(=O)NN5CCOCC5)cccc3-4)cc2)CC1 [RGB286638] | 9.7

// moving on: another record for IC50
Ask: Would you mind telling me what IC50 value was observed for CN1C/C=C/CCOc2cccc(c2)-c2ccnc(n2)Nc2cccc(c2)C1 [SB1317] ?
Result: 250

* * *

Molecular target: CDK12/Cyclin K (Homo sapiens)
Sequence (Q9NYV4 1-1481 isoform Q9NYV4-2): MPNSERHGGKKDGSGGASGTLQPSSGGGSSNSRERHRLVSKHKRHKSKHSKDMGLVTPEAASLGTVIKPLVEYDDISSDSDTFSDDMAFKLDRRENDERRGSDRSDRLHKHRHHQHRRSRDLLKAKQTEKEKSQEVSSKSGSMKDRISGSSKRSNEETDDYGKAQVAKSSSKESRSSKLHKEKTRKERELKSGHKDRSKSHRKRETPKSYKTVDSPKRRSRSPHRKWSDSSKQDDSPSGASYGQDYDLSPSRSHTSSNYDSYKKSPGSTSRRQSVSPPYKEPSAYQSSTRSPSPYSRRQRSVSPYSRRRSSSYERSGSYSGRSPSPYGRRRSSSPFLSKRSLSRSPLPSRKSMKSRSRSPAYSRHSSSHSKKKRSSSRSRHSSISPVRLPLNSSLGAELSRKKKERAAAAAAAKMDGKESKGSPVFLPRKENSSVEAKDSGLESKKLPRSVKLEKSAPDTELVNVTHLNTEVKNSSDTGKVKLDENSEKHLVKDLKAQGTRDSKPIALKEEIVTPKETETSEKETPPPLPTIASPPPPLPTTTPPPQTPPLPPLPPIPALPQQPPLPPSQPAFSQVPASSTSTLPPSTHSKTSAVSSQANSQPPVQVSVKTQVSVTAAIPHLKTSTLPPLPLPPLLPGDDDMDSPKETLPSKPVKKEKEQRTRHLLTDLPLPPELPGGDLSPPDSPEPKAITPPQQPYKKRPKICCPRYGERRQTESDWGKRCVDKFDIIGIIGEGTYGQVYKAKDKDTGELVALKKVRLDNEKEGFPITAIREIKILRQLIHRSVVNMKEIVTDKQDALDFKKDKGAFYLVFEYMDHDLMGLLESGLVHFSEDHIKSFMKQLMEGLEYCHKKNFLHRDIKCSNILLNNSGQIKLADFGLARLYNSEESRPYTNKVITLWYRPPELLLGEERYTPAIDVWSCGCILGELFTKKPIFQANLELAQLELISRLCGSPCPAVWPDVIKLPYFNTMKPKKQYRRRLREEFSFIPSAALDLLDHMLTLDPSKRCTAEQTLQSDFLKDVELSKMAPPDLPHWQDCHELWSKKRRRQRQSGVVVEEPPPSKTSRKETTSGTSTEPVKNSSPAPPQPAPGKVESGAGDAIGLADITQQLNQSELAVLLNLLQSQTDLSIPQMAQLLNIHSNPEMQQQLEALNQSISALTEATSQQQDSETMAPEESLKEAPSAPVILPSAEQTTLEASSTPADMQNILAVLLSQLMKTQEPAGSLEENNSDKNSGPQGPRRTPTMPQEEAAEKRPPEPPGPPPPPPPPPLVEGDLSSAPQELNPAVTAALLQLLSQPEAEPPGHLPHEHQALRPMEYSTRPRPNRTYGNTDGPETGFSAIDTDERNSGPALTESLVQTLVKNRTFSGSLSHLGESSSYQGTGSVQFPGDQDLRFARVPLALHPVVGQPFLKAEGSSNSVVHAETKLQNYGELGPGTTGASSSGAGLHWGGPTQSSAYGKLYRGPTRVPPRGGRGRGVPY
Sequence (O75909 whole entry partner): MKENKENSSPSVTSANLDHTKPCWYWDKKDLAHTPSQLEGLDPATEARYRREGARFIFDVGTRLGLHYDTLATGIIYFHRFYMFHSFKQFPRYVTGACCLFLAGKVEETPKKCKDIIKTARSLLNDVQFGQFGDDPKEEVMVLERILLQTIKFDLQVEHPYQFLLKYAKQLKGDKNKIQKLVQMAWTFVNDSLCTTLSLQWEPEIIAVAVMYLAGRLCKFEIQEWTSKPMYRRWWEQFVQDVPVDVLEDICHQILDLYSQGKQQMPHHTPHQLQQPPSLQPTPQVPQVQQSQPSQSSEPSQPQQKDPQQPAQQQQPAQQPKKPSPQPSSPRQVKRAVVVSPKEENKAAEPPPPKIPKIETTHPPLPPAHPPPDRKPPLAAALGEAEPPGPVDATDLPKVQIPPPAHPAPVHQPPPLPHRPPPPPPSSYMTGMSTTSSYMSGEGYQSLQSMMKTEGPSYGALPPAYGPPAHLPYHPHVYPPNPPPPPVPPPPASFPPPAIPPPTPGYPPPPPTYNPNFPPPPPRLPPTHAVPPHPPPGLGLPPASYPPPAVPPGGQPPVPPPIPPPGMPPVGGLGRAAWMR
Test: NanoBRET live-cell target engagement, CDK12-NanoLuc/Cyclin K in HEK-293
Assay type: binding
Settings: 10µM; average of experiments
TEST READOUT: CDK12/K Inhibition at 10µM (%)
Quick reminder: number only, in %, skip the unit.

Ask: Could you tell me which CDK12/K Inhibition at 10µM (%) is on file for O=C1NCCc2[nH]c(-c3ccncc3)cc21 ?
Result: 18.3

Ask: For the molecule Cc1c(Br)c(Br)c2c3c1nc(N1CCNCC1)n3CCC2.Cl [SEL 120-34A] , what CDK12/K Inhibition at 10µM (%) is on record?
Result: 44.4

Ask: # input molecule: CN(C)C/C=C/C(=O)Nc1ccc(C(=O)Nc2cccc(Nc3ncc(Cl)c(-c4c[nH]c5ccccc45)n3)c2)cc1 ; wanted: its CDK12/K Inhibition at 10µM (%)
Result: 45.5

Ask: Fill blank: measured CDK12/K Inhibition at 10µM (%) of the molecule O=C1NC(=NCc2cccs2)S/C1=C\c1ccc2ncccc2c1 is ____.
Result: 10.6

* * *

Molecular target: CDK6/Cyclin D1 (Homo sapiens)
Experiment: NanoBRET live-cell target engagement, NanoLuc-CDK6/Cyclin D1 in HEK-293
Format: binding
Conditions: CDK6/D1; 10µM; average of replicates
# maps each entry to its Inhibition at 10µM (%) Average
Param answer (str): number followed by unit.

Solved cases (3 shown):
MOLECULE | Inhibition at 10µM (%) Average
CNC1CCN(C(=O)c2ccc(Nc3ncc(F)c(-c4cnc(C)n4C(C)C)n3)cc2)C1 (stereo not shown) | 100.1%
CC(C)c1cnn2c(NCc3ccccc3)cc(N[C@@H](CO)[C@H](O)CO)nc12 | 85.2%
CCC(CO)Nc1nc(Nc2cccc(-c3ccccn3)c2)c2ncn(C(C)C)c2n1.Cl.O [(R) - DRF053] | 6.4%

Ask: Entry O=C(Nc1c[nH]nc1-c1ccccn1)c1nn(C2CCNCC2)cc1Cl , system CDK6/Cyclin D1 (Homo sapiens): what Inhibition at 10µM (%) Average was measured?
Result: 5.5%

* * *

Target: CDK1/Cyclin E1 (Homo sapiens)
Sequence (P06493 whole entry): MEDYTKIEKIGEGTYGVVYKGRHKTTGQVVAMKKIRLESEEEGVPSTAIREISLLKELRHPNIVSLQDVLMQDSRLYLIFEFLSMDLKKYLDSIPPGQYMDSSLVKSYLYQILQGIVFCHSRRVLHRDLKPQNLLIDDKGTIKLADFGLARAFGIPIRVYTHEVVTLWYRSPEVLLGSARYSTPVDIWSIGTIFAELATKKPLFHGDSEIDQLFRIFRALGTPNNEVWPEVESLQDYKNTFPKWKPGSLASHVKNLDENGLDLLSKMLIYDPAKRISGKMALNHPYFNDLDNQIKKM
Sequence (P24864 whole entry partner): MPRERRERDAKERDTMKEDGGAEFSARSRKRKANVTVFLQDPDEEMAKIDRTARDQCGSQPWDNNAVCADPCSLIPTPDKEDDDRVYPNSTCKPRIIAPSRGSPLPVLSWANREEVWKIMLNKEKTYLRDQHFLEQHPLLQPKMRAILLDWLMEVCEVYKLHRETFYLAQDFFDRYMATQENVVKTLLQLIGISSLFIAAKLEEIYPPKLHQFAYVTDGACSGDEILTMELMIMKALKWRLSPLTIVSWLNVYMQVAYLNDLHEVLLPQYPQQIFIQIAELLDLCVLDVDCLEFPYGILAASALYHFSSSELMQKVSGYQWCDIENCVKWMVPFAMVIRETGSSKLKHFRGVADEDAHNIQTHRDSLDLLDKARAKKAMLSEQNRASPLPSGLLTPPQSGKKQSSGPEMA
Test: NanoBRET live-cell target engagement, CDK1-NanoLuc/Cyclin E1 in HEK-293
Type: binding
Settings: CDK1/E1; experiment 2
Measured Inhibition at 10µM (%) values are reported for all entries that follow.
Return type: number; implicit unit %.

Would you please look over these solved cases?
COMPOUND | Inhibition at 10µM (%)
CCn1cnc2c(Nc3cccc(Cl)c3)nc(N[C@@H]3CCCC[C@@H]3N)nc21 [CGP74514A] | 80.1
CN1CCC(c2c(O)cc(O)c3c(=O)cc(-c4ccccc4Cl)oc23)C1CO (centres unmarked) [P276-00] | 36.2
CC(C)c1cnn2c(NCc3ccccc3-n3cccn3)nc(OC3CCCNC3)nc12 (centres unmarked) [LDC4297] | 74.5

Ask: // returns reported Inhibition at 10µM (%) for input CS(=O)(=O)N1CCC(NC(=O)c2[nH]ncc2NC(=O)c2c(Cl)cccc2Cl)CC1 [NVP-LCQ195]
Result: 90.2

Ask: Please report the recorded Inhibition at 10µM (%) for CC(C)c1c2cc(-c3ccnc(N[C@H]4CC[C@H](NC5CCOCC5)CC4)n3)ccc2nn1C [LY2857785] .
Result: 76.9
